Test system: HS 578T breast
Assay: NCI tumour cell line growth inhibition, 48 h; in the data active means GI50 below about 0.43 µM; inactive means the rest
Labels: True (active), False (inactive)

- COMPOUND: "CSc1nc2ccc(C)cc2cc1/C=C1/C=C(c2ccccc2)NC1=O"
  GROUP_LABEL: "False"
- COMPOUND: "C[C@@H](C[C@H](CCO)c1ccccc1)c1ccc2ccccc2c1"
  GROUP_LABEL: "False"
- COMPOUND: "CS(=O)(=O)CCNCc1ccoc1-c1ccc2ncnc(Nc3ccc(OCc4ccccc4)cc3)c2c1"
  GROUP_LABEL: "False"
- COMPOUND: "Cc1nc2sc(C(=O)Nc3ccccc3)c(N)c2cc1C(=O)c1ccccc1"
  GROUP_LABEL: "False"
- COMPOUND: "CN(C)CCOc1ccc2c(c1)C(=O)/C(=C\\c1ncc([N+](=O)[O-])n1C)C2"
  GROUP_LABEL: "False"
- COMPOUND: "O=C(/C=C/c1ccc(Cl)cc1Cl)c1ccc(Cl)cc1Cl"
  GROUP_LABEL: "False"
- COMPOUND: "c1ccc(-c2cc3n4c(-c5ccccc5)nn(-c5ccccc5)c4cnc-3n2)cc1"
  GROUP_LABEL: "False"
- COMPOUND: "COc1ccc(F)cc1-c1ccnc2[nH]c(C3=CCN(C4CCC(CC(=O)O)CC4)CC3)cc12 (configuration not stated)"
  GROUP_LABEL: "True"
- COMPOUND: "COc1ccc(S(=O)(=O)Nc2cc(Sc3cccc4cccnc34)c(O)c3ccccc23)cc1"
  GROUP_LABEL: "False"
- COMPOUND: "C1CC[N-]CC1.CC(=N\\O)/C(C)=N/O.CC(=N\\O)/C(C)=N/O.C[CH-]C(C)O.[Co+2]"
  GROUP_LABEL: "False"
- COMPOUND: "CC1=C(SCCC(=O)OC(C[Se]C2=C(C)C(=O)c3ccccc3C2=O)C(=O)NC(C)(C)C)C(=O)c2ccccc2C1=O (configuration not stated)"
  GROUP_LABEL: "False"
- COMPOUND: "COc1cc2c(=O)n(CC3CCCCC3)c3c4cc[nH]c4ncc3c2cc1OC"
  GROUP_LABEL: "False"

src = PubChem BioAssay (NCI)
